Test system: Vero E6
Assay: cell viability relative to DMSO; higher = less toxic
Conditions: 72 h; 10000 nM
experimentalReadout: cell viability (%)

• CNC[C@H](O)[C@@H](O)[C@H](O)[C@H](O)CO = 96.5
• Cc1ccc(Sc2cncc3sc(C(N)=O)cc23)cc1 = 98.1
• CCN(CC)C(=O)[C@@]1(c2ccccc2)C[C@H]1CN = 98.2
• CCCN(C/C=C/I)C1CCc2cccc(O)c2C1 (stereo not given) [8-hydroxy-PIPAT] = 92.9
• CC(C)N(CCNC(=O)CN1CCCC1=O)C(C)C = 108

* * *

Tested on: U2OS
Test: cell viability relative to DMSO; higher = less toxic
Settings: 72 h; 10 nM
cell viability reference
experimentalReadout: cell viability (%)

* COc1ccc(OC[C@@H]2c3cc(OC)c(OC)cc3CCN2C(=O)c2cccc(Cl)c2)cc1 | 100
* CC(=O)NC1N=C(c2ccccc2)c2ccccc2NC1=O (stereo not drawn) | 94.6
* O=S(=O)(O)c1cc(O)ccc1O [etamsylate] | 98.3
* CCN(CC)CCOC(=O)C(c1ccccc1)C1CCCCC1 (stereo not drawn) | 99.1
* CCn1cc(C(=O)O)c(=O)c2cnc(N3CCNCC3)nc21 | 101
* Cc1ccc(S(=O)(=O)Nc2nc3ccccc3nc2Nc2ccc3nsnc3c2)cc1 | 103
* C=C(C)[C@@H]1CC[C@]2(C(=O)O)CC[C@]3(C)[C@H](CC[C@@H]4[C@@]5(C)CC[C@H](OC(=O)CC(C)(C)C(=O)O)C(C)(C)[C@@H]5CC[C@]43C)[C@@H]12 | 98.5
* CN(C)/C=N/c1c(I)cc(I)c(CCC(=O)O)c1I | 100

* * *

Test system: U2OS
Experiment: cell viability relative to DMSO; higher = less toxic
Conditions: 72 h; 10000 nM
experimentalReadout: cell viability (%)

- CCCOc1ccc(Br)cc1-c1cc(-c2ccc(Cl)cc2)[nH]c1-c1ccncc1: 98.6
- CC[C@H](C)[C@@H]([C@@H](CC(=O)N1CCC[C@H]1[C@H](OC)[C@@H](C)C(=O)N[C@@H](Cc1ccccc1)c1nccs1)OC)N(C)C(=O)[C@@H](NC(=O)[C@H](C(C)C)N(C)C)C(C)C: 11.1
- CC(C)(C)[C@H]1CC[C@H](CC2=C(O)C(=O)c3ccccc3C2=O)CC1: 97.6
- NCCCC[C@H](N[C@@H](CCc1ccccc1)C(=O)O)C(=O)N1CCC[C@H]1C(=O)O: 97.2
- O=C1C2C=Nc3ccccc3C2=NN1c1ccc(Cl)cc1 (configuration not stated): 91.3
- NCCCCCc1c[nH]cn1: 95.4
- c1ccc(C(NCCNC(c2ccccc2)c2ccccc2)c2ccccc2)cc1: 93.8
- CCC(Cc1c(I)cc(I)c(N)c1I)C(=O)O (configuration not stated): 97.1
- C=CCN1CC[C@]23CCCC[C@H]2[C@H]1Cc1ccc(O)cc13: 103
- CCN[C@H]1CN(CCCOC)S(=O)(=O)c2sc(S(N)(=O)=O)cc21 [brinzolamide]: 99.9
- CC(=O)OCC(=O)[C@H]1CC[C@H]2[C@@H]3CCC4=CC(=O)CC[C@]4(C)[C@H]3CC[C@]12C [deoxycorticosterone-acetate]: 99.2
- CN1CCC(COc2cnc(-c3cccc(Cn4nc(-c5cccc(C#N)c5)ccc4=O)c3)nc2)CC1: 102
- Clc1ccc(C2=CCC[C@H]3CC[C@@H]2N3)cn1: 102
- CN1CCc2c(c3ccccc3n2Cc2ccc(C(=O)NO)cc2)C1: 84
- O=C(O)C(F)(F)C(F)(F)C(F)(F)C(F)(F)C(F)(F)C(F)(F)C(F)(F)F [ammonium-perfluorocaprylate]: 104
- CC(Cc1ccccc1)NCCC(c1ccccc1)c1ccccc1 (configuration not stated): 85.7
- CN1CCC(=C2c3ccccc3CCn3c(C=O)cnc32)CC1: 99.6

* * *

Each entry below lists one item and its recorded cell viability value.
Test system: U2OS
Assay: cell viability relative to DMSO; higher = less toxic
Conditions: 72 h; 1000 nM
Structures can show the parent of a compound that is named as a salt.
experimentalReadout: cell viability (%)

* CC(C)C[C@@H](NC(=O)[C@H](Cc1ccccc1)NC(=O)CNC(=O)[C@@H](C)NC(=O)[C@@H](N)Cc1ccc(O)cc1)C(=O)O [BW-180C] | 104
* CN(C)C(=O)COC(=O)Cc1ccc(OC(=O)c2ccc(NC(=N)N)cc2)cc1 [Camostat mesylate] | 100
* CN(C)CCOC(c1ccccc1)c1ccccc1 [diphenhydramine] | 96.5
* CC(C)c1ccccc1S(=O)(=O)c1cc(N)c2ncccc2c1[N+](=O)[O-] | 98.5
* CN1C(=O)/C(=C2/C(=O)Nc3ccccc32)c2ccccc21 | 99
* O[C@H]1CC[C@H](Nc2ncc3nc(Nc4c(F)cc(F)cc4F)n([C@H]4CCOC4)c3n2)CC1 | 96.7
* C=CCN1CC[C@]23c4c5ccc(O)c4O[C@H]2[C@@H](OCCOCCOCCOCCOCCOCCOCCOC)CC[C@@]3(O)[C@H]1C5 | 98.8
* O=C(O)c1ccc2nc(-c3cc(Cl)cc(Cl)c3)oc2c1 | 97.6

* * *

System: Vero E6
Assay: cell viability relative to DMSO; higher = less toxic
Conditions: 72 h; 100 nM
Structures can show the parent of a compound that is named as a salt.
Each item that follows carries a reported cell viability.
experimentalReadout: cell viability (%)

* O=S(=O)(c1ccccc1)N(CC(F)(F)F)c1ccc(C(O)(C(F)(F)F)C(F)(F)F)cc1 | 98.1
* Clc1ccc(C2=CCC[C@H]3CC[C@@H]2N3)cn1 | 95.6
* O=C1C2C=Nc3ccccc3C2=NN1c1ccc(Cl)cc1 (stereo not given) | 92.6
* O=C(Nc1cc(Cl)cc(Cl)c1O)c1c(O)c(Cl)cc(Cl)c1Cl [oxyclozanide] | 96.2
* O=C(O)CCC(=O)Nc1ccc(S(=O)(=O)Nc2nccs2)cc1 | 98.7
* CC(=O)Nc1cccc(Nc2ncnc(N3CCC(OCc4ccc(OC(F)(F)F)cc4)CC3)n2)c1C | 100
* CCOC(=O)CNC(=O)[C@@H]1CCCN1C(=O)Cc1ccccc1 | 98.8
* COc1cc(C(C)=O)ccc1OCCCN1CCC(c2noc3cc(F)ccc23)CC1 | 94.7
* O=C(NC1CCN(CCCCC2(C(=O)NCC(F)(F)F)c3ccccc3-c3ccccc32)CC1)c1ccccc1-c1ccc(C(F)(F)F)cc1 [lomitapide] | 96
* O=C(O)C1=CO[C@@H](O[C@@H]2O[C@H](CO)[C@@H](O)[C@H](O)[C@H]2O)[C@@H]2C(CO)=CC[C@H]12 | 97.5
* CN1CCC(COc2cnc(-c3cccc(Cn4nc(-c5cccc(C#N)c5)ccc4=O)c3)nc2)CC1 | 95.7
* CC(=O)OCC(=O)[C@@]12N=C(C)O[C@@H]1C[C@H]1[C@@H]3CCC4=CC(=O)C=C[C@]4(C)[C@H]3[C@@H](O)C[C@@]12C | 102
* CCCCCCCCCCCCc1ccc(S(=O)(=O)Nc2nncs2)cc1 | 102
* N#CC(c1ccnc(OCc2ccc(CN3CCOCC3)cc2)n1)c1nc2ccccc2s1 (stereo not given) | 93.1
* c1ccc(C(NCCNC(c2ccccc2)c2ccccc2)c2ccccc2)cc1 | 95
* CN1CCc2c(c3ccccc3n2Cc2ccc(C(=O)NO)cc2)C1 | 101
* CC(C)NC(=O)COc1cccc(-c2nc(Nc3ccc4[nH]ncc4c3)c3ccccc3n2)c1 | 104
* CCCCS(=O)(=O)N[C@@H](Cc1ccc(OCCCCC2CCNCC2)cc1)C(=O)O | 93.7
* NC(=O)C1CCCc2c1[nH]c1ccc(Cl)cc21 (stereo not given) | 93.7
* CC(C)(Oc1ccc(Cl)cc1)C(=O)O | 97.7
* Cc1c(C)c2c(c(C)c1O)CC[C@@](C)(CCC[C@H](C)CCC[C@H](C)CCCC(C)C)O2 | 88.5
* CCNC(=O)CCC/C=C\C[C@@H]1[C@@H](/C=C/[C@@H](O)CCc2ccccc2)[C@H](O)C[C@@H]1O | 96.1
* CC(C)(C)[C@H]1CC[C@H](CC2=C(O)C(=O)c3ccccc3C2=O)CC1 | 105
* C=C1CC[C@H](O)C/C1=C/C=C1\CCC[C@]2(C)[C@@H]([C@H](C)CCCC(C)(C)O)CC[C@@H]12 | 98.1
* NC(=O)c1[nH]cnc1O | 99.7
* Nc1n[nH]c2nc3ccccc3nc12 | 100
* C=CCc1cccc(/C=N/NC(=O)CN2CCN(Cc3ccccc3)CC2)c1O | 104
* CN(C)C(=O)COC(=O)Cc1ccc(OC(=O)c2ccc(NC(=N)N)cc2)cc1 [Camostat mesylate] | 88.8
* Cc1cccc(C)c1NC(=O)C[N+](C)(C)C | 98.7
* O=C(c1ccc(-c2ccc(Cl)cc2)o1)N(Cc1ccccn1)c1ccc(N2CCNCC2)cc1 | 98.1

Hello, the source for this data is the supplement of paper PMC13380429, in case you need it.
